These entries and their values trace back to patent US8084467B2.

Items are presented alongside their recorded log10 Ki.
# assayedTarget: CB2 receptor (Mus musculus, UniProt P47936)
# Construct: membranes were prepared from frozen mouse spleen; from tissue; host or cells: mouse spleen
# Sequence (P47936 whole entry): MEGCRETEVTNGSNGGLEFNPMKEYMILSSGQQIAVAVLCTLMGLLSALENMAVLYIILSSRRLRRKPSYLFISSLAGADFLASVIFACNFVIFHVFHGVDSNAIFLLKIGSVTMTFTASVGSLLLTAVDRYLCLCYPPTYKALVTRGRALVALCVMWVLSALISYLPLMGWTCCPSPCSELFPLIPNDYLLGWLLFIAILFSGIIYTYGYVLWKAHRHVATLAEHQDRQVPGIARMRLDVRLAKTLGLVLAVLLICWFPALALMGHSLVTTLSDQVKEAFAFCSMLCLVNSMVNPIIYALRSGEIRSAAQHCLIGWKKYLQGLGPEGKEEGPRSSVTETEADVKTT
# protocolNotes: CB2 receptor binding, mouse spleen membranes, same manner as the CB1 binding assay
# details: affinities Ki CB2, mouse spleen membranes, [3H] CP-55,940
# Protocol: Some of the inventive analogs were tested for CB2 receptor binding affinity and for CB1 receptor affinity (to determine selectivity). […] The lower the Ki value the higher the binding affinity. The treated membranes were subsequently used in the binding assay described below. […] Radioactivity was detected using MicroScint 20 scintillation cocktail added directly to the dried filterplates, and the filterplates were counted using a Packard Instruments Top-Count. […]
quantityMeasured: log10 Ki (log10 of the value in nM)

compound	measuredResult
COCc1c(C(=O)NN2CCCCC2)nn(-c2ccc(Cl)cc2Cl)c1-c1ccc(Br)cc1	2.75
O=C(NN1CCCCC1)c1nn(-c2ccc(Cl)cc2Cl)c(-c2ccc(Br)cc2)c1CO	2.69
CCCCCC=Cc1nn(-c2ccc(Cl)cc2Cl)c(-c2ccc(Br)cc2)c1C	4.72
Cc1c(C(O)C(O)c2ccccc2)nn(-c2ccc(Cl)cc2Cl)c1-c1ccc(Br)cc1 (stereo not drawn)	3.59
Cc1c(NC(=O)C2CCCCC2)nn(-c2ccc(Cl)cc2Cl)c1-c1ccc(Br)cc1	4.43
Cc1c(C(=O)Nc2ccc3ccccc3c2)nn(CCCCCCl)c1-c1ccccc1	1.19
COCc1c(C(=O)N(C)C2CCCCC2)nn(-c2ccc(Cl)cc2Cl)c1-c1ccc(Br)cc1	3.31
COCOCc1c(C(=O)N2CCCCC2)nn(-c2ccc(Cl)cc2Cl)c1-c1ccc(Br)cc1	3.49
CN(C(=O)c1nn(-c2ccc(Cl)cc2Cl)c(-c2ccc(I)cc2)c1CO)C1CCCCC1	2.72

====

# assayedTarget: CB1 cannabinoid receptor (Rattus norvegicus)
# Construct: membranes were prepared from rat forebrain membranes; from tissue; host or cells: rat forebrain
# protocolNotes: CB1 receptor binding, rat forebrain membranes, [3H] CP-55,940 displacement
# details: ratio of CB2 Ki to CB1 Ki
Items are presented alongside their recorded selectivity CB1.
quantityMeasured: selectivity CB1

molecule	measuredResult
Cc1c(NC(=O)NC2CCCCC2)nn(-c2ccc(Cl)cc2Cl)c1-c1ccc(-c2cccnc2)cc1	374.6
Cn1nnnc1-c1ccc(-c2c(CO)c(C(=O)NC3CCCCC3)nn2-c2ccc(Cl)cc2Cl)cc1	1
O=C(Nc1nn(-c2ccc(Cl)cc2Cl)c(-c2ccc(Br)cc2)c1CO)NC1CCCCC1	546.7
CN(C(=O)c1nn(-c2ccc(Cl)cc2Cl)c(-c2ccc(-c3nnn(C)n3)cc2)c1CO)C1CCCCC1	3.0

====

Items are presented alongside their recorded selectivity CB1.
# assayedTarget: CB1 cannabinoid receptor (Rattus norvegicus, UniProt P20272)
# Construct: membranes were prepared from rat forebrain membranes; from tissue; host or cells: rat forebrain
# Sequence (P20272 whole entry): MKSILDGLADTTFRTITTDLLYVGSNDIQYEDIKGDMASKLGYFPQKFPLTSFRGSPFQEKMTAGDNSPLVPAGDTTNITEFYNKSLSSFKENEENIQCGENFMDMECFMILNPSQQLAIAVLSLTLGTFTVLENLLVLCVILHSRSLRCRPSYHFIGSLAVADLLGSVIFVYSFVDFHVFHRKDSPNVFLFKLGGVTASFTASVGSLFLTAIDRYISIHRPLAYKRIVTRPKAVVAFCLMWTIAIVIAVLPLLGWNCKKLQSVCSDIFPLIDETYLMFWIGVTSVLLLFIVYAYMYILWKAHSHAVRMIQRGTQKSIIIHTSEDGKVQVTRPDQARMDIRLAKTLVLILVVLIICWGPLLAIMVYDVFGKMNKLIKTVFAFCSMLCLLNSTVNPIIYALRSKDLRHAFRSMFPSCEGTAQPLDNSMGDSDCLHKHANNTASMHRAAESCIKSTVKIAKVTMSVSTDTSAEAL
# protocolNotes: CB1 receptor binding, rat forebrain membranes, [3H] CP-55,940 displacement
# details: ratio of CB2 Ki to CB1 Ki
quantityMeasured: selectivity CB1

compound	measuredResult
CN(C(=O)c1nn(-c2ccc(Cl)cc2Cl)c(-c2ccc(-c3cccnc3)cc2)c1CO)C1CCCCC1	3.3
Cc1c(C(=O)NN2CCCCC2)nn(-c2ccc(Cl)cc2Cl)c1-c1ccc(-c2cccc(Cl)c2)cc1	491
Cc1c(C(=O)NN2CCCCC2)nn(-c2ccc(Cl)cc2Cl)c1-c1ccc(C#N)cc1	213.3
Cc1c(NC(=O)OC2CCCCC2)nn(-c2ccc(Cl)cc2Cl)c1-c1ccc(Br)cc1	6.5
COCOCc1c(C(=O)NC2CCCCC2)nn(-c2ccc(Cl)cc2Cl)c1-c1ccc(Br)cc1	3.6
CN(C(=O)c1nn(-c2ccc(Cl)cc2Cl)c(-c2ccc(Br)cc2)c1CO)C1CCCCC1	62.1
Cc1c(C(=O)NN2CCCCC2)nn(-c2ccc(Cl)cc2Cl)c1-c1ccc(C(N)=S)cc1	1.5
CN(C(=O)c1nn(-c2ccc(Cl)cc2Cl)c(-c2ccc(-c3nnn[nH]3)cc2)c1CO)C1CCCCC1	3.8
Cn1nnc(-c2ccc(-c3c(CO)c(C(=O)NN4CCCCC4)nn3-c3ccc(Cl)cc3Cl)cc2)n1	120.5
CNCc1c(C(=O)NC2CCCCC2)nn(-c2ccc(Cl)cc2Cl)c1-c1ccc(Br)cc1	2.3
Cc1c(C(=O)NN2CCCCC2)nn(-c2ccc(Cl)cc2Cl)c1-c1ccc(-c2cccnc2)cc1	118
Cc1c(NC(=O)NC2CCCCC2)nn(-c2ccc(Cl)cc2Cl)c1-c1ccc(Br)cc1	635.2
CN(C)CCOCc1c(C(=O)NC2CCCCC2)nn(-c2ccc(Cl)cc2Cl)c1-c1ccc(Br)cc1	5.8
COCc1c(C(=O)N(C)C2CCCCC2)nn(-c2ccc(Cl)cc2Cl)c1-c1ccc(Br)cc1	7.5
O=C(NN1CCCCC1)c1nn(-c2ccc(-c3cccnc3)cc2Cl)c(-c2ccc(-c3cccnc3)cc2)c1CO [Compound 3-20]	10.9
